Tested on: RSV Long strain
Assay Remarks: Viral cytopathic effect (CPE) assay, anti-RSV activity
Format: cell-based, Respiratory Syncytial Virus
Condition Notes: human respiratory syncytial virus, 144 h, RSV Long strain (ATCC); cell viability after 6 days, Cell Counting kit-8
Label true when EC50 is strictly below 0.05 µM; at or above that, label false.

In: Please indicate whether the reported EC50 of COc1ccc2c(c1)CN(c1cc(NCCN)c3ccccc3n1)CCC2 is strictly below 0.05 µM.
Out: false

In: Please indicate whether the reported EC50 of CN(C)C(=O)c1ccc2c(c1)CCCN(c1cc(NCCN)c3cc(Cl)ccc3n1)C2 is strictly below 0.05 µM.
Out: false

In: Please indicate whether the reported EC50 of Cc1ccc2nc(N3CCS(=O)(=O)c4ccccc4C3)cc(NCCOCCN)c2c1 is strictly below 0.05 µM.
Out: false

In: Please indicate whether the reported EC50 of Cc1ccc2nc(N3CCS(=O)(=O)c4ccccc4C3)nc(NCC(F)CN)c2c1 (stereo not drawn) is strictly below 0.05 µM.
Out: true

In: Please indicate whether the reported EC50 of Cc1ccc2nc(N3CC[S+]([O-])c4ccccc4C3)nc(N[C@@H]3CNC[C@H]3F)c2c1 (relative stereo) is strictly below 0.05 µM.
Out: true

In: Please indicate whether the reported EC50 of Cc1ccc2nc(N3CCCc4ccc(F)cc4C3)cc(NCCN)c2c1 is strictly below 0.05 µM.
Out: false

In: Please indicate whether the reported EC50 of Cc1ccc2nc(N3CCS(=O)(=O)c4cc(Cl)ccc4C3)cc(NCC3(N)COC3)c2c1 is strictly below 0.05 µM.
Out: true

In: Please indicate whether the reported EC50 of COc1ccc2c(c1)S(=O)(=O)CCN(c1cc(NCC3(N)COC3)c3cc(C)ccc3n1)C2 is strictly below 0.05 µM.
Out: true

In: Please indicate whether the reported EC50 of Cc1ccc2nc(N3CCS(=O)(=O)c4ccccc4C3)cc(NCC(C)N)c2c1 (stereo not drawn) is strictly below 0.05 µM.
Out: true

In: Please indicate whether the reported EC50 of Cc1ccc2nc(N3CCC(F)(F)c4ccccc4C3)cc(NCCCN)c2c1 is strictly below 0.05 µM.
Out: true

In: Please indicate whether the reported EC50 of NCCNc1cc(N2CCCc3ccccc3C2)nc2ccc(C(F)(F)F)cc12 is strictly below 0.05 µM.
Out: false

In: Please indicate whether the reported EC50 of Cc1ccc2nc(N3CCS(=O)(=O)c4ccccc4C3C)cc(NCC(O)CO)c2c1 (stereo not drawn) is strictly below 0.05 µM.
Out: false

In: Please indicate whether the reported EC50 of Cc1ccc2nc(N3CCS(=O)(=O)c4ccccc4C3)cc(NC3CCNCC3)c2c1 is strictly below 0.05 µM.
Out: true

In: Please indicate whether the reported EC50 of Cc1ccc2nc(N3CCS(=O)(=O)c4ccccc4C3)cc(NCCNc3ccccn3)c2c1 is strictly below 0.05 µM.
Out: false

In: Please indicate whether the reported EC50 of CNCCNc1cc(N2CCS(=O)(=O)c3ccccc3C2)nc2ccc(C)cc12 is strictly below 0.05 µM.
Out: true

In: Please indicate whether the reported EC50 of NCC1(CNc2nc(N3CCS(=O)(=O)c4ccccc4C3)nc3ccc(C(=O)O)cc23)COC1 is strictly below 0.05 µM.
Out: false

In: Please indicate whether the reported EC50 of Cc1cccc2c(NCCCCCCCCCN)cc(N3CCS(=O)(=O)c4ccccc4C3)nc12 is strictly below 0.05 µM.
Out: false

In: Please indicate whether the reported EC50 of Cc1ccc2nc(N3CCS(=O)(=O)c4ccccc4C3)cc(NC(=O)[C@H](C)N)c2c1 is strictly below 0.05 µM.
Out: false

In: Please indicate whether the reported EC50 of CO[C@@H]1CNC[C@H]1Nc1cc(N2CCS(=O)(=O)c3ccccc3C2)nc2ccc(C)cc12 (relative stereo) is strictly below 0.05 µM.
Out: false

In: Please indicate whether the reported EC50 of Cc1ccc2nc(N3CCS(=O)(=O)c4ccccc4C3)cc(N[C@H]3CNC[C@H]3O)c2c1 (relative stereo) is strictly below 0.05 µM.
Out: true

In: Please indicate whether the reported EC50 of Cc1ccc2nc(N3CCC(F)(F)c4ccccc4C3)nc(NCC(CN)(CO)CO)c2c1 is strictly below 0.05 µM.
Out: false

In: Please indicate whether the reported EC50 of Cc1ccc2nc(N3CC[S+]([O-])c4ccccc4C3)cc(NCC(O)CO)c2c1 (stereo not drawn) is strictly below 0.05 µM.
Out: false

In: Please indicate whether the reported EC50 of [2H]C([2H])([2H])c1ccc2nc(N3CCS(=O)(=O)c4ccccc4C3)cc(NCC3(CN)COC3)c2c1 is strictly below 0.05 µM.
Out: true

In: Please indicate whether the reported EC50 of Cc1ccc2nc(N3CCS(=O)(=O)c4ccccc4C3)cc(N[C@@H]3CNC[C@H]3O)c2c1 (relative stereo) is strictly below 0.05 µM.
Out: true

In: Please indicate whether the reported EC50 of NCCNc1cc(N2CCS(=O)(=O)c3ccccc3C2)nc2ccc(CO)cc12 is strictly below 0.05 µM.
Out: true

In: Please indicate whether the reported EC50 of Cc1ccc2nc(N3CCS(=O)(=O)c4ccccc4C3)cc(NCCN)c2c1F is strictly below 0.05 µM.
Out: true

In: Please indicate whether the reported EC50 of Cc1ccc2nc(N3CCS(=O)(=O)c4ccccc4C3)cc(NCC3(N)CCOC3)c2c1 (stereo not drawn) is strictly below 0.05 µM.
Out: true

In: Please indicate whether the reported EC50 of Cc1ccc2nc(N3CCS(=O)(=O)c4ccccc4C3)cc(NCC(F)CN)c2c1 (stereo not drawn) is strictly below 0.05 µM.
Out: true

In: Please indicate whether the reported EC50 of Cc1ccc2nc(N3CCS(=O)(=O)c4ccccc4C3)cc(NCC(O)CN)c2c1 (stereo not drawn) is strictly below 0.05 µM.
Out: true

In: Please indicate whether the reported EC50 of Cc1ccc2nc(N3CCS(=O)(=O)c4ccccc4C3)cc(NCCN3CCOCC3)c2c1 is strictly below 0.05 µM.
Out: false

In: Please indicate whether the reported EC50 of Cc1ccc2nc(N3CCC(F)(F)c4ccccc4C3)cc(N3CCCNCC3)c2c1 is strictly below 0.05 µM.
Out: false

In: Please indicate whether the reported EC50 of COc1ccc2c(c1)S(=O)(=O)CCN(c1cc(NCC3(N)COC3)c3cc(Cl)ccc3n1)C2 is strictly below 0.05 µM.
Out: false

In: Please indicate whether the reported EC50 of NCCNc1cc(N2CCCc3ccccc3C2)nc2ccccc12 is strictly below 0.05 µM.
Out: false
